assay: in vivo; settings: nude, mouse, iv, 4 mg/kg, Plasma conc
assay-metric: concentration at 24 h (µM)
Give the quantity in µM, number only.

Query: State the recorded concentration at 24 h for this entry: CC(=O)O[C@H]1C(=O)[C@@]2(C)[C@H]([C@H](OC(=O)c3ccccc3)[C@]3(O)C[C@H](OC(=O)[C@H](O)[C@@H](NC(=O)c4ccccc4)c4ccccc4)C(C)=C1C3(C)C)[C@]1(OC(C)=O)CO[C@@H]1C[C@@H]2O
Result: 0.012

----------
experiment: Plasma, brain and liver levels of epothilone D after bolus IV in triple transgenic mice; assay type: in vivo, mouse; conditions: triple transgenic (Oddo et al. 2003), mouse, brain, 5 mg/kg, bolus IV 5 mpk, .33 hr, read-out: Brain conc
assay-metric: concentration at […] (nM)
Output spec: scalar in nM, unitless text.

Query: For the compound shown here, C/C1=C/C[C@@H](/C(C)=C/c2csc(C)n2)OC(=O)C[C@H](O)C(C)(C)C(=O)[C@H](C)[C@@H](O)[C@@H](C)CCC1 , give the reported concentration at […].
Result: 529

----------
assay: Plasma, brain and liver levels of epothilone D after bolus IV in triple transgenic mice; format: in vivo, mouse; conditions: triple transgenic (Oddo et al. 2003), mouse, plasma, 5 mg/kg, bolus IV 5 mpk, 0.05 hr, read-out: Plasma conc
assay-metric: concentration at 0.05 h (µM)
# unit: µM | format: bare number

Query: May I ask what concentration at 0.05 h has been recorded for C/C1=C/C[C@@H](/C(C)=C/c2csc(C)n2)OC(=O)C[C@H](O)C(C)(C)C(=O)[C@H](C)[C@@H](O)[C@@H](C)CCC1 [Epothilone D, epothilone D] ?
Result: 25.1

----------
experiment: Plasma, brain and liver levels of epothilone D after bolus IV in triple transgenic mice; assay type: in vivo, mouse; conditions: triple transgenic (Oddo et al. 2003), mouse, brain, 5 mg/kg, bolus IV 5 mpk, 0.05 hr, read-out: Brain conc
assay-metric: concentration at 0.05 h (nM)
The answer is to be given in nM; state only the numeric part.

Query: Quick check: concentration at 0.05 h of C/C1=C/C[C@@H](/C(C)=C/c2csc(C)n2)OC(=O)C[C@H](O)C(C)(C)C(=O)[C@H](C)[C@@H](O)[C@@H](C)CCC1 ?
Result: 1130

----------
experiment: Plasma, brain and liver levels after oral gavage in C57BL/6 mice; assay type: in vivo, mouse; details: mouse, plasma, 10 mg/kg; C57BL/6 mice, oral gavage 10 mpk, 8 hr; read-out: Plasma conc
assay-metric: concentration at 8 h (nM)
Expressed in nM, but write only the number.

Query: Which concentration at 8 h value is on record for C/C1=C/C[C@@H](/C(C)=C/c2csc(C)n2)OC(=O)C[C@H](O)C(C)(C)C(=O)[C@H](C)[C@@H](O)[C@@H](C)CCC1 [Epothilone D, epothilone D] ?
Result: 1.4

----------
experiment: Plasma, brain and liver levels after bolus IV administration in nude mice; details: nude, mouse, in vivo, iv, 1 mg/kg, Plasma conc, bolus IV 1 mpk, 6 hr
assay-metric: concentration at 6 h

Query: Returns the measured concentration at 6 h for the input compound. Input: C/C(=C\c1csc(CN)n1)[C@@H]1C[C@@H]2O[C@]2(C)CCC[C@H](C)[C@H](O)[C@@H](C)C(=O)C(C)(C)[C@@H](O)CC(=O)O1
Result: 3 nM

----------
assay: Plasma, brain and liver levels after oral gavage in C57BL/6 mice; format: in vivo, mouse; settings: mouse, brain, 35 mg/kg; C57BL/6 mice, oral gavage 35 mpk, 5 hr; read-out: Brain conc
Quick reference: concentration at 5 hr of the listed items.

{"molecule": "CCC[C@H]1C(=O)C(C)(C)[C@@H](O)CC(=O)O[C@H](/C(C)=C/c2csc(C)n2)CC=C(C)CCC[C@H](C)[C@@H]1O (single isomer, unassigned)", "assay-metric": "concentration at 5 hr", "value-observed": "4.6 nM"}

Now consider the entry below.
Query: Sample C/C1=C/C[C@@H](/C(C)=C/c2csc(C)n2)OC(=O)C[C@H](O)C(C)(C)C(=O)[C@H](C)[C@@H](O)[C@@H](C)CCC1 — what was its concentration at 5 hr?
Result: 76.9 nM

----------
test: Plasma, brain and liver levels after bolus IV administration in nude mice; settings: nude, mouse, in vivo, iv, 5 mg/kg, Plasma conc, bolus IV 5 mpk, 24 hr
assay-metric: concentration at 24 h (nM)
Entry rule: numbers only, all in nM.

Query: Reported concentration at 24 h for C/C1=C/C[C@@H](/C(C)=C/c2csc(C)n2)OC(=O)C[C@H](O)C(C)(C)C(=O)[C@H](C)[C@@H](O)[C@@H](C)CCC1 : what is it?
Result: 1

----------
test: in vivo; conditions: nude, mouse, iv, 12 mg/kg, Plasma conc
assay-metric: concentration at 24 h (nM)
Entry rule: numbers only, all in nM.

Query: # lookup: concentration at 24 h of C/C(=C\c1csc(C)n1)[C@@H]1C[C@@H]2O[C@]2(C)CCC[C@H](C)[C@H](O)[C@@H](C)C(=O)C(C)(C)[C@@H](O)CC(=O)N1 [Ixabepilone]
Result: 8

----------
test: in vivo; conditions: nude, mouse, iv, 12 mg/kg
assay-metric: Kp at 6 h

Query: Consider the molecule shown here: C/C(=C\c1csc(C)n1)[C@@H]1C[C@@H]2O[C@]2(C)CCC[C@H](C)[C@H](O)[C@@H](C)C(=O)C(C)(C)[C@@H](O)CC(=O)N1 [Ixabepilone] What is its recorded Kp at 6 h?
Result: 7

----------
test: Plasma, brain and liver levels after oral gavage in C57BL/6 mice; type: in vivo, mouse; settings: mouse, brain and plasma, 35 mg/kg; C57BL/6 mice, oral gavage 35 mpk, 1 hr; read-out: Brain/Plasma Ratio
assay-metric: Kp at 1 h
Form: value (number only, do not type unit).

Query: # query: Kp at 1 h of entry CCC[C@H]1C(=O)C(C)(C)[C@@H](O)CC(=O)O[C@H](/C(C)=C/c2csc(C)n2)CC=C(C)CCC[C@H](C)[C@@H]1O (single isomer, unassigned) [Compound III]
Result: 2.3

----------
test: Plasma, brain and liver levels after oral gavage in C57BL/6 mice; type: in vivo, mouse; details: mouse, plasma, 10 mg/kg; C57BL/6 mice, oral gavage 10 mpk, 4 hr; read-out: Plasma conc
assay-metric: concentration at 4 h
Record the result as number plus unit.

Query: Value lookup for concentration at 4 h; key = C/C1=C/C[C@@H](/C(C)=C/c2csc(C)n2)OC(=O)C[C@H](O)C(C)(C)C(=O)[C@H](C)[C@@H](O)[C@@H](C)CCC1
Result: 2.5 nM

----------
experiment: in vivo; details: nude, mouse, iv, 12 mg/kg, Plasma conc
assay-metric: concentration at 2 h (nM)
Return type: number; implicit unit nM.

Query: Look up concentration at 2 h: C/C(=C\c1csc(C)n1)[C@@H]1C[C@@H]2O[C@]2(C)CCC[C@H](C)[C@H](O)[C@@H](C)C(=O)C(C)(C)[C@@H](O)CC(=O)N1 [Ixabepilone]
Result: 171

----------
experiment: Plasma, brain and liver levels after bolus IV administration in nude mice; details: nude, mouse, in vivo, iv, 1 mg/kg, Plasma conc, bolus IV 1 mpk, 24 hr
assay-metric: concentration at 24 h (nM)
Expressed in nM, but write only the number.

Query: concentration at 24 h for C/C(=C\c1csc(CN)n1)[C@@H]1C[C@@H]2O[C@]2(C)CCC[C@H](C)[C@H](O)[C@@H](C)C(=O)C(C)(C)[C@@H](O)CC(=O)O1 ?
Result: 1

----------
assay: Plasma, brain and liver levels after bolus IV administration in nude mice; details: nude, mouse, in vivo, iv, 5 mg/kg, Brain conc, bolus IV 5 mpk, 24 hr
assay-metric: concentration at 24 h (nM)
Write down the numeric answer in nM and omit the unit.

Query: Look at this molecule and give its reported concentration at 24 h. C/C1=C/C[C@@H](/C(C)=C/c2csc(C)n2)OC(=O)C[C@H](O)C(C)(C)C(=O)[C@H](C)[C@@H](O)[C@@H](C)CCC1
Result: 2050

----------
Assay: Plasma, brain and liver levels after oral gavage in C57BL/6 mice
Type: in vivo, mouse
Settings: mouse, plasma, 10 mg/kg; C57BL/6 mice, oral gavage 10 mpk, 24 hr; read-out: Plasma conc
Text: Below, we first report the experimental detail for preparation and isolation of Compound III, and then the biological, in vivo data is described.
assay-metric: concentration at 24 h
Remember to follow the number with its unit.

Query: Sample C/C1=C/C[C@@H](/C(C)=C/c2csc(C)n2)OC(=O)C[C@H](O)C(C)(C)C(=O)[C@H](C)[C@@H](O)[C@@H](C)CCC1 — what was its concentration at 24 h?
Result: 0.2 nM

----------
assay: in vivo; details: nude, mouse, iv, 12 mg/kg
assay-metric: Kp at 2 h
Please respond with just the number, no unit label.

Query: Returns the measured Kp at 2 h for the input compound. Input: C/C(=C\c1csc(C)n1)[C@@H]1C[C@@H]2O[C@]2(C)CCC[C@H](C)[C@H](O)[C@@H](C)C(=O)C(C)(C)[C@@H](O)CC(=O)N1 [Ixabepilone]
Result: 2.1
